The reported numbers originate from patent US9067949B2.

# Assayed target: UniProt:P50406
# Assay comment: 5-HT6 radioligand binding assay (SPA format, [N-methyl-3H]-LSD)

Molecule: Cl.N#Cc1ccc(S(=O)(=O)c2ccc3oc4c(c3c2)CNCC4)cc1 [Example 34, hydrochloride]
Ki [nM]: 1320

---

# Assayed target: human 5-HT6 receptor (Homo sapiens (Human))
# Sequence (P50406 whole entry): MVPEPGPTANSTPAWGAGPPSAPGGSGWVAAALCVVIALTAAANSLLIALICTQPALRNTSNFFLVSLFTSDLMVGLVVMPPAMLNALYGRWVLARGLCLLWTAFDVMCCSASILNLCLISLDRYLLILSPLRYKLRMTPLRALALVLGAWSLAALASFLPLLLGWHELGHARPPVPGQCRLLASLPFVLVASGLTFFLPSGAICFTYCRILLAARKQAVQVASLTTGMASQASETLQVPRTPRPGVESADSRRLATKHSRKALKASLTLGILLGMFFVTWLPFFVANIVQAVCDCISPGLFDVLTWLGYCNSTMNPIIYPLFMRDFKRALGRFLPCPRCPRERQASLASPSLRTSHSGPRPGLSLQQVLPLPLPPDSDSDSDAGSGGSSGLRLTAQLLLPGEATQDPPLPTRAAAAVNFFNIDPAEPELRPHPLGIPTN
# Assay comment: 5-HT6 radioligand binding assay (SPA format, [N-methyl-3H]-LSD)
# Setup conditions: human 5-HT6 receptor membranes, 10 nM [N-methyl-3H]-LSD; Ki by Cheng-Prusoff; read-out: human 5HT6 Ki
pKi: −log10 of the molar value.
Output criterion met for pKi not less than 8; output criterion not met otherwise.

Molecule: CC(C)(O)CN1CCc2oc3c(Cl)cc(S(=O)(=O)c4ccccc4)cc3c2C1 [Example 147]
Assigned class: criterion met

Molecule: N#Cc1cc(S(=O)(=O)c2cc(F)cc(F)c2)cc2c3c(oc12)CCNC3 [Example 208]
Assigned class: criterion not met

Molecule: Cl.O=S(=O)(c1ccc2oc3c(c2c1)CNCC3)c1cccc2ccccc12 [Example 39, hydrochloride]
Assigned class: criterion met

Molecule: Cc1cc(S(=O)(=O)c2cccc(OC(F)F)c2)cc2c3c(oc12)CCNC3 [Example 202]
Assigned class: criterion met

Molecule: Cl.O=S(=O)(c1ccc2oc3c(c2c1)CNCC3)n1ccc2ccccc21 [Example 41, hydrochloride]
Assigned class: criterion met

Molecule: COc1cc([S+]([O-])c2ccccc2)cc2c3c(oc12)CCNC3 (centres unmarked) [Example 235]
Assigned class: criterion met

Molecule: COc1cc(S(=O)(=O)c2cccc([C@@H](C)O)c2)cc2c3c(oc12)CCNC3 [Example 174]
Assigned class: criterion met

Molecule: Cl.O=S(=O)(c1ccc2ccccc2c1)c1ccc2oc3c(c2c1)CNCC3 [Example 40, hydrochloride]
Assigned class: criterion not met
